- assay.comment: in vivo
- conditions.used: female, ICR, mouse, in vivo, iv
readout.type: clearance

> print(dat)
                  compound.structure.string  readout.type    test.value
1  N#Cc1ccc(/C=C/c2nc3ccccc3c(=O)n2-c2cccc(C(=O)O)c2)cc1.[Na]     clearance  0.426 L/h/kg

----------
- Tested on: S. aureus ATCC 29213 (MSSA)
- assay.comment: MIC, CLSI broth microdilution, S. aureus ATCC 29213
- Type: cell-based, Staphylococcus aureus
- conditions.used: Table 2.1, S. aureus ATCC 29213
- Protocol: MICs were evaluated following the CLSI microdilution method in BBL™ Mueller-Hinton II broth (Wikler et al., Clinical Laboratory Standards Institute Document M7-A7, 29 (2009)). Briefly, two-fold serial dilutions of compound were prepared in triplicate in 96-well plates and inoculated with 5×10^5 cfu/mL of the bacterial suspension. Plates were incubated at 37° C. for 16-20 hours.
Consider the following compounds and their measured In vitro AB activity (MIC) readings.

compound.structure.string	unit.of.measure	In vitro AB activity (MIC)
N#Cc1ccc(/C=C/c2nc3ccccc3c(=O)n2-c2cccc(C(=O)O)c2)cc1.[Na]	µg/mL	2
Cc1onc(-c2ccccc2)c1C(=O)N[C@@H]1C(=O)N2[C@@H]1SC(C)(C)[C@@H]2C(=O)O	µg/mL	0.25
CC(=O)NC[C@H]1CN(c2ccc(N3CCOCC3)c(F)c2)C(=O)O1	µg/mL	4
CN[C@H](CC(C)C)C(=O)N[C@H]1C(=O)N[C@@H](CC(N)=O)C(=O)N[C@H]2C(=O)N[C@H]3C(=O)N[C@H](C(=O)N[C@H](C(=O)O)c4cc(O)cc(O)c4-c4cc3ccc4O)[C@H](O)c3ccc(c(Cl)c3)Oc3cc2cc(c3O[C@@H]2O[C@H](CO)[C@@H](O)[C@H](O)[C@H]2O[C@H]2C[C@](C)(N)[C@H](O)[C@H](C)O2)Oc2ccc(cc2Cl)[C@H]1O	µg/mL	1

----------
- assay.comment: in vivo
- conditions.used: ICR, mouse, in vivo, po, 10 mg/kg
readout.type: half-life (h)

> print(dat)
                  compound.structure.string  unit.of.measure  test.value
1  N#Cc1ccc(/C=C/c2nc3ccccc3c(=O)n2-c2cccc(C(=O)O)c2)cc1.[Na]                h          58

----------
- Tested on: S. aureus NRS128
- assay.comment: MIC, CLSI broth microdilution, S. aureus NRS128
- Assay type: cell-based, Staphylococcus aureus
- conditions.used: Table 2.1, S. aureus NRS128
Below, each entry is listed with its recorded In vitro AB activity (MIC).

compound.structure.string	measurement.target	In vitro AB activity (MIC)
N#Cc1ccc(/C=C/c2nc3ccccc3c(=O)n2-c2cccc(C(=O)O)c2)cc1.[Na]	S. aureus NRS128	4 µg/mL
CC(=O)NC[C@H]1CN(c2ccc(N3CCOCC3)c(F)c2)C(=O)O1	S. aureus NRS128	1 µg/mL
Cc1onc(-c2ccccc2)c1C(=O)N[C@@H]1C(=O)N2[C@@H]1SC(C)(C)[C@@H]2C(=O)O	S. aureus NRS128	0.5 µg/mL
CN[C@H](CC(C)C)C(=O)N[C@H]1C(=O)N[C@@H](CC(N)=O)C(=O)N[C@H]2C(=O)N[C@H]3C(=O)N[C@H](C(=O)N[C@H](C(=O)O)c4cc(O)cc(O)c4-c4cc3ccc4O)[C@H](O)c3ccc(c(Cl)c3)Oc3cc2cc(c3O[C@@H]2O[C@H](CO)[C@@H](O)[C@H](O)[C@H]2O[C@H]2C[C@](C)(N)[C@H](O)[C@H](C)O2)Oc2ccc(cc2Cl)[C@H]1O	S. aureus NRS128	1 µg/mL
